Let's look at some molecules and their measured EC50.
- Tested target: T1, human glucagon receptor (GCGr) (Homo sapiens, UniProt P47871)
- T1 construct: expressed in transfected cells; host or cells: HEK293s or CHO cells
- T1 sequence (P47871 26-477): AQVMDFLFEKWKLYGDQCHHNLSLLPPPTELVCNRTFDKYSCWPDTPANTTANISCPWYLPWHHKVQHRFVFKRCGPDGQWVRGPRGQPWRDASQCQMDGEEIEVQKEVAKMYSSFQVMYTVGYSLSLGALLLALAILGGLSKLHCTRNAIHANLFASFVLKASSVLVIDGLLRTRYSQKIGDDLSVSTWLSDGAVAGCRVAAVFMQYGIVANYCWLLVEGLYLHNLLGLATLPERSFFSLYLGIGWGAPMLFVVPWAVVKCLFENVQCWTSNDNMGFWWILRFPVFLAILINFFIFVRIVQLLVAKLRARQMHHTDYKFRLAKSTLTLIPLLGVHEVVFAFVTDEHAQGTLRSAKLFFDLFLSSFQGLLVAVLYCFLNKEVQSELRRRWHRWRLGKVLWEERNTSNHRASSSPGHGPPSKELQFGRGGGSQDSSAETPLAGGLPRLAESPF
- Procedure summary: BSA-cAMP assay, cells expressing human glucagon receptor
- Type: cell-based
- Experimental context: Batch 1, read-out: hGCGr cAMP activity EC50

Worked cases, answers included:
Molecule	Reported measurement
IP373 (protein) YSEGTHTSDFSKLLERQAIDEFIAWLLKGGAAAGGSGSTASSGSGSATGGGGAATHTCPPC	> 6.79 µM
IP321 (protein) YSEGTFISDYSIAMDKIHQQDFVNWLLAGGAAAGGSGSTASSGSGSATGGGGAATHTCPPC	0.024 µM

Field: next molecule
Short answer for IP375 (protein) YSEGTHTSLFSKLLERQAIDEFIAWLLKGGAAAGGSGSTASSGSGSATGGGGAATHTCPPC : EC50 was > 11.7 µM
